test system: Pseudomonas aeruginosa; assay: Antimicrobial activity against Pseudomonas aeruginosa 22C5 tracheal isolates from mechanically ventilated chronic respiratory insufficiency patient; format: functional, organism-based; conditions: Trachea
Active and inactive are the calls of the source. No cut-off for these calls is given here.
Readout Type: Activity

[
  {
    "Molecule Smiles": "C[C@@H](O)[C@H]1C(=O)N2C(C(=O)O)=C(SCCNC=N)C[C@H]12",
    "System Name": "Pseudomonas aeruginosa",
    "Activity": "Active"
  },
  {
    "Molecule Smiles": "CC(C)(O/N=C(\\C(=O)N[C@@H]1C(=O)N2C(C(=O)[O-])=C(C[n+]3ccccc3)CS[C@H]12)c1csc(N)n1)C(=O)O",
    "System Name": "Pseudomonas aeruginosa",
    "Activity": "Active"
  },
  {
    "Molecule Smiles": "NCC[C@H](O)C(=O)N[C@@H]1C[C@H](N)[C@@H](O[C@H]2O[C@H](CN)[C@@H](O)[C@H](O)[C@H]2O)[C@H](O)[C@H]1O[C@H]1O[C@H](CO)[C@@H](O)[C@H](N)[C@H]1O",
    "System Name": "Pseudomonas aeruginosa",
    "Activity": "Active"
  },
  {
    "Molecule Smiles": "O=C(O)c1cn(C2CC2)c2cc(N3CCNCC3)c(F)cc2c1=O",
    "System Name": "Pseudomonas aeruginosa",
    "Activity": "Active"
  },
  {
    "Molecule Smiles": "CO/N=C(\\C(=O)N[C@@H]1C(=O)N2C(C(=O)[O-])=C(C[N+]3(C)CCCC3)CS[C@H]12)c1csc(N)n1",
    "System Name": "Pseudomonas aeruginosa",
    "Activity": "Active"
  }
]

Let us move to another entry and its Activity.
q: Recorded Activity for `CCn1cc(C(=O)O)c(=O)c2cc(F)c(N3CCNCC3)cc21` with Pseudomonas aeruginosa, please?
a: Active

----------
test system: Pseudomonas aeruginosa; experiment: Antimicrobial activity against Pseudomonas aeruginosa 2A5 tracheal isolates from mechanically ventilated tuberculosis patient; type: functional, organism-based; conditions: Trachea
Active and inactive are the calls of the source. No cut-off for these calls is given here.

[
  {
    "Molecule Smiles": "O=C(O)c1cn(C2CC2)c2cc(N3CCNCC3)c(F)cc2c1=O",
    "Activity": "Active"
  },
  {
    "Molecule Smiles": "NC[C@H]1O[C@H](O[C@H]2[C@H](O)[C@@H](O[C@H]3O[C@H](CO)[C@@H](O)[C@H](N)[C@H]3O)[C@H](N)C[C@@H]2N)[C@H](N)C[C@@H]1O",
    "Activity": "Active"
  },
  {
    "Molecule Smiles": "C[C@H]1[C@H](NC(=O)/C(=N\\OC(C)(C)C(=O)O)c2csc(N)n2)C(=O)N1S(=O)(=O)O",
    "Activity": "Active"
  }
]

----------
tested on: Pseudomonas aeruginosa; test: Antimicrobial activity against Pseudomonas aeruginosa 65.38-2 tracheal isolates from mechanically ventilated tuberculosis patient; format: functional, organism-based; settings: Trachea
Calls of active or inactive are those of the source. No cut-off for these calls is given here.
Pick one and only one: active, inactive

q: Please let me know the test result on file for `CCn1cc(C(=O)O)c(=O)c2cc(F)c(N3CCNCC3)cc21` .
a: active

q: Now give it for `CCN[C@@H]1C[C@H](N)[C@@H](O[C@H]2OC(CN)=CC[C@H]2N)[C@H](O)[C@H]1O[C@H]1OC[C@](C)(O)[C@H](NC)[C@H]1O` too.
a: inactive

q: Now give it for `C[C@@H](O)[C@H]1C(=O)N2C(C(=O)O)=C(SCCNC=N)C[C@H]12` too.
a: inactive

q: Now give it for `NCC[C@H](O)C(=O)N[C@@H]1C[C@H](N)[C@@H](O[C@H]2O[C@H](CN)[C@@H](O)[C@H](O)[C@H]2O)[C@H](O)[C@H]1O[C@H]1O[C@H](CO)[C@@H](O)[C@H](N)[C@H]1O` too.
a: inactive

Reference source: ChEMBL document CHEMBL1147101
